Target: T1, human CRH receptor type 2 (human, UniProt Q13324 1-411)
T1 sequence (looked up): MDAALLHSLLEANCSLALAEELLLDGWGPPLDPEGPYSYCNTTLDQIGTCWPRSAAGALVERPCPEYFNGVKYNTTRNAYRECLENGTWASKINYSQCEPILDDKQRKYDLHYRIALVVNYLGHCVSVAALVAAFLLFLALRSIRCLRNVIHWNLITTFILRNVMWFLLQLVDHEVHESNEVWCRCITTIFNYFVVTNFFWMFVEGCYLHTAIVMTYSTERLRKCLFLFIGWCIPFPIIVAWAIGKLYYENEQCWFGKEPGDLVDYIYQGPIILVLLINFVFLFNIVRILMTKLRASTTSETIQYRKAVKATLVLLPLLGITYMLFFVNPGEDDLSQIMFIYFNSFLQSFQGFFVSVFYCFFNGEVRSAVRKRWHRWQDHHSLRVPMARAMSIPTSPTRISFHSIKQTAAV
Assay: cell-based or functional assay
No end group written: not given here.
RESULT TYPE: Log DR against h-SCP, cAMP

{"columns": ["BINDER", "OBSERVED RESULT"],
 "data": [
  ["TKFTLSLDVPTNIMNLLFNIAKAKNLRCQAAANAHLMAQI (NES-PEG MW2000 on Cys 28; C-terminal amide) [Pegylated Cys-variant CRHR2 peptide agonist (NES-PEG MW2000), SEQ ID NO: 95]", "0.43 log10 ratio"],
  ["TKFTLSCDVPTNIMNLLFNIAKAKNLRAQAAANAHLMAQI-NH2 [Cys-variant CRHR2 peptide agonist, SEQ ID NO: 8]", "2.86 log10 ratio"],
  ["TKFTLSLDVPTNIMNLLFNIACAKNLRAQAAANAHLMAQI-NH2 [Cys-variant CRHR2 peptide agonist, SEQ ID NO: 23]", "1.13 log10 ratio"],
  ["TKFTLSLDVPTNIMNLLFNIAKAKNLRAQAACNAHLMAQI (NES-PEG (about 20 kDa) on Cys 32; C-terminal amide) [Pegylated Cys-variant CRHR2 peptide agonist (NES linker, PEG about 20 kDa), SEQ ID NO: 86]", "0.82 log10 ratio"],
  ["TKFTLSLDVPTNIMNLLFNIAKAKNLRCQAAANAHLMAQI (NES-PEG MW40000 on Cys 28; C-terminal amide) [Pegylated Cys-variant CRHR2 peptide agonist (NES-PEG MW40000), SEQ ID NO: 100]", "1.1 log10 ratio"],
  ["TKFTLSLDVPTNIMNLLFNIAKAKNLRAQAAANAHLMACI (NES-PEG (about 20 kDa) on Cys 39; C-terminal amide) [Pegylated Cys-variant CRHR2 peptide agonist (NES linker, PEG about 20 kDa), SEQ ID NO: 93]", "1.47 log10 ratio"]
]}
